assayRemarks: Pharmacokinetics after cassette oral administration to mice
experimentalSetup: male, Swiss Webster, mouse, in vivo, 1 mg/kg
Procedure: Male Swiss Webster mice (10-week old, 30-35 g) were used for PK studies. […] Each blood sample was immediately transferred to a tube containing 50 μL of water containing 0.1% EDTA. After being mixed strongly on a Vortex for 1 min, all samples were stored at −80° C. until analysis. […] Analytes were detected by negative mode electrospray ionizations tandem quadrupole trap mass spectrometry in multiple reaction-monitoring mode (MRM) on a Trap 4000 Mass Spectrometer (ABI, Milford, Mass.). […]
metricName: Tmax (h)
The answer is to be given in h; state only the numeric part.

Tmax reading for CNC(=O)c1cc(O[C@H]2CC[C@H](NC(=O)Nc3ccc(Cl)c(C(F)(F)F)c3)CC2)ccn1 : 1.7

----------
Would you mind telling me the reported EC50 of each entry?
System: Huh-7 hepatoma cell line
assayRemarks: MTT cell viability assay, Huh-7
Type: cell-based
experimentalSetup: Homo sapiens, Huh-7, 72 h, read-out: EC50 on cell viability, Huh-7 (Liver)
Give the number; µM is assumed, so skip it.

Given item O=C(Nc1ccc(OC(F)(F)F)cc1)N[C@H]1CC[C@H](Oc2ccc(C(=O)O)cc2)CC1 , the value recorded as its EC50 is 20

The molecule listed as CNC(=O)c1ccc(O[C@H]2CC[C@H](NC(=O)Nc3ccc(OC(F)(F)F)cc3)CC2)cc1 shows EC50 equal to 5.5

Notebook: CNC(=O)c1cc(Oc2ccc(NC(=O)Nc3ccc(Cl)c(C(F)(F)F)c3)cc2)ccn1 [Sorafenib, reference compound] , EC50 read as 4.2

----------
systemName: human sEH (Homo sapiens (Human))
assayRemarks: Inhibitory activity against human sEH
Type: biochemical
What pIC50 was measured for each of the following?
Reminder that pIC50 is minus the log10 of a molar concentration.

Entry N#Cc1ccc(O[C@H]2CC[C@H](NC(=O)Nc3ccc(Cl)c(C(F)(F)F)c3)CC2)cc1 , human sEH (Homo sapiens (Human)) data, pIC50 value: 7.84

# O=C(Nc1ccc(Cl)c(C(F)(F)F)c1)N[C@H]1CC[C@H](Oc2ccc(C(=O)O)cc2)CC1 with human sEH (Homo sapiens (Human)): pIC50 is 9.30

----------
System: PC-3 prostate cancer cell line
assayRemarks: MTT cell viability assay, PC-3
Format: cell-based
experimentalSetup: 72 h, read-out: EC50 on cell viability, PC-3 (Prostate)
metricName: EC50 (µM)
Hi! Could you send only the number? It should be in µM, unit omitted.

Field EC50 (entry CNC(=O)c1ccc(O[C@H]2CC[C@H](NC(=O)Nc3ccc(OC(F)(F)F)cc3)CC2)cc1 [Compound 2227] ) reads 10

In plain terms, CNC(=O)c1cc(Oc2ccc(NC(=O)Nc3ccc(Cl)c(C(F)(F)F)c3)cc2)ccn1 [Sorafenib, reference compound] has a documented EC50 of 5.5

----------
Could you please report measured pEC50 for the items listed next?
Tested on: ACHN renal cell carcinoma cell line
assayRemarks: MTT cell viability assay, ACHN
Format: cell-based
experimentalSetup: Homo sapiens, 72 h, read-out: EC50 on cell viability, ACHN (Kidney)
Please note pEC50 is a logarithmic value: minus log10 of concentration in mol/L. Answer with that number alone.

Short answer for CNC(=O)c1cc(Oc2ccc(NC(=O)Nc3ccc(Cl)c(C(F)(F)F)c3)cc2)ccn1 [Sorafenib, reference compound] : pEC50 was 5.40

The recorded pEC50 for entry O=C(Nc1ccc(OC(F)(F)F)cc1)N[C@H]1CC[C@H](Oc2ccc(C(=O)O)cc2)CC1 equals 4.82

The measured pEC50 associated with CNC(=O)c1ccc(O[C@H]2CC[C@H](NC(=O)Nc3ccc(OC(F)(F)F)cc3)CC2)cc1 reads 5.19

----------
systemName: human sEH (Homo sapiens (Human))
assayRemarks: Inhibitory activity against human sEH
Assay type: biochemical
experimentalSetup: read-out: Human sEH IC50
Give pIC50 for every item shown.
As a rule, pIC50 stands for the negative log10 of the concentration, concentration in M.

Entry N#Cc1ccc(O[C@H]2CC[C@H](NC(=O)Nc3ccc(Cl)cc3)CC2)cc1 — recorded pIC50 = 9.30

CNC(=O)c1ccc(O[C@H]2CC[C@H](NC(=O)Nc3ccc(Cl)c(C(F)(F)F)c3)CC2)cn1 has a reported pIC50 of 9.30

Looking up N#Cc1ccc(O[C@H]2CC[C@H](NC(=O)Nc3ccc(C(F)(F)F)cc3)CC2)cc1 , I found its pIC50 recorded as 9.30

Query CNC(=O)c1ccc(O[C@H]2CC[C@H](NC(=O)NC34CC5CC(CC(C5)C3)C4)CC2)cc1 yields pIC50 of 9.30

----------
systemName: b-Raf (V600E) (Homo sapiens (Human), UniProt P15056, V600E)
Sequence (P15056 whole entry V600E): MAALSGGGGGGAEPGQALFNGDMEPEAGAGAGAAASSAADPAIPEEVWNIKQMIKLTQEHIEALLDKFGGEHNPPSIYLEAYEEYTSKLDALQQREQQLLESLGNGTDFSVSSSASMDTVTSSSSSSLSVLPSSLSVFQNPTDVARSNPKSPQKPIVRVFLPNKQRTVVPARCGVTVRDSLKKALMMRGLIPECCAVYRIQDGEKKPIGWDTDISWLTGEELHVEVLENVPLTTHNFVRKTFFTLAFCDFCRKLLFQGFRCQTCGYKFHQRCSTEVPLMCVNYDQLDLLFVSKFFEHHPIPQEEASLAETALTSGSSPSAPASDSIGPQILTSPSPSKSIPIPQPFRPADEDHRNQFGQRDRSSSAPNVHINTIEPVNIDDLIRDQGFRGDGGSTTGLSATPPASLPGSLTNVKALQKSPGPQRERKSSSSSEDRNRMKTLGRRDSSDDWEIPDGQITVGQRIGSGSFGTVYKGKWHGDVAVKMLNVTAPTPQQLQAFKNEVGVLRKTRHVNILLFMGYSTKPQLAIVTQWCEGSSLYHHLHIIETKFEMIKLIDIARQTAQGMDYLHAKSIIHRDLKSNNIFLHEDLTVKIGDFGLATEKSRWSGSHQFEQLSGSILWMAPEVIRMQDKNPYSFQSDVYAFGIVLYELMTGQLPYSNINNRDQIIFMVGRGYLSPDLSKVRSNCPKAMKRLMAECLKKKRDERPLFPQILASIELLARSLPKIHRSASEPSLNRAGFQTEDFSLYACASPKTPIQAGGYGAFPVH
assayRemarks: In vitro kinase inhibition assay (ADP-Glo), b-Raf (V600E)
pIC50: −log10 of the molar value.
metricName: pIC50

Entry O=C(Nc1ccc(Cl)c(C(F)(F)F)c1)N[C@H]1CC[C@H](Oc2ccc(C(=O)O)cc2)CC1 ; pIC50 = < 5.00

Noted for CNC(=O)c1cc(Oc2ccc(NC(=O)NC34CC5CC(CC(C5)C3)C4)cc2)ccn1 : its pIC50 reads < 5.00

pIC50 for CNC(=O)c1ccc(O[C@H]2CC[C@H](NC(=O)Nc3ccc(OC(F)(F)F)cc3)CC2)cc1 is < 5.00

For this molecule ( CNC(=O)c1ccc(O[C@H]2CC[C@H](NC(=O)Nc3ccc(Cl)c(C(F)(F)F)c3)CC2)cn1 ), measured pIC50 is 5.82

In plain terms, CC(C)(C)OC(=O)c1cc(O[C@H]2CC[C@H](NC(=O)Nc3ccc(Cl)c(C(F)(F)F)c3)CC2)ccn1 has a documented pIC50 of < 5.00

The reported pIC50 of the molecule O=C(Nc1ccc(Cl)c(C(F)(F)F)c1)N[C@H]1CC[C@H](Oc2ccc(C(F)(F)F)cn2)CC1 was < 5.00

----------
assayRemarks: Pharmacokinetics after cassette oral administration to mice
experimentalSetup: male, Swiss Webster, mouse, in vivo, 1 mg/kg
metricName: Cmax
Just the number plus its unit, please.

The molecule identified as CNC(=O)c1cc(O[C@H]2CC[C@H](NC(=O)Nc3ccc(Cl)c(C(F)(F)F)c3)CC2)ccn1 [Compound 2278] registered its Cmax at 190 nM

----------
systemName: human sEH (Homo sapiens (Human), UniProt P34913)
Sequence (P34913 whole entry): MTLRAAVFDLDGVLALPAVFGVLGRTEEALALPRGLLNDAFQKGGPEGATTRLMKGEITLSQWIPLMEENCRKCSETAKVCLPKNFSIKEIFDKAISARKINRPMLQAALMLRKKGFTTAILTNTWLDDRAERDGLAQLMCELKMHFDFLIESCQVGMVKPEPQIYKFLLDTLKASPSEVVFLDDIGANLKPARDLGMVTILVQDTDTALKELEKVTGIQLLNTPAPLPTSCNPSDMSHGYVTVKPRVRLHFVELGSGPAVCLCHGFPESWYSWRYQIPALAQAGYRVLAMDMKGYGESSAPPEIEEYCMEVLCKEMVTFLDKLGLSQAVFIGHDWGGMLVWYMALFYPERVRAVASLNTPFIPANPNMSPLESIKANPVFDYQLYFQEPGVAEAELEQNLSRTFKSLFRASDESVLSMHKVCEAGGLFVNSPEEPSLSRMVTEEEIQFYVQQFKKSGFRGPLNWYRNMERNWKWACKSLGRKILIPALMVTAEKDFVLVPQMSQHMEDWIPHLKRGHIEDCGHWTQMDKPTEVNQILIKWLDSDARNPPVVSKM
assayRemarks: Inhibitory activity against human sEH
Assay type: biochemical
experimentalSetup: read-out: Human sEH IC50
metricName: pIC50
Note on pIC50: it is the negative log10 of concentration, concentration in mol/L.

Please fill in: pIC50 reported for O=C(Nc1ccc(C(F)(F)F)cc1)N[C@H]1CC[C@H](Oc2ccc(C(=O)O)cc2)CC1 = 9.05

Sure, the documented pIC50 for O=C(Nc1ccc(Cl)c(C(F)(F)F)c1)N[C@H]1CC[C@H](Oc2ccc(C(F)(F)F)cn2)CC1 is 8.05

Record CNC(=O)c1cc(O[C@H]2CC[C@@H](NC(=O)Nc3ccc(Cl)c(C(F)(F)F)c3)CC2)ccn1 , field pIC50: 9.30

Note to self: pIC50 recorded for CCOC(=O)c1ccc(O[C@H]2CC[C@@H](NC(=O)Nc3ccc(OC(F)(F)F)cc3)CC2)cc1 [Compound 1612, reference compound] was 8.47

Lookup result for CC(C)(C)OC(=O)c1ccc(O[C@H]2CC[C@H](NC(=O)Nc3ccc(Cl)c(C(F)(F)F)c3)CC2)cn1 ; measured pIC50: 9.30

The recorded pIC50 for N#Cc1ccc(O[C@H]2CC[C@H](NC(=O)Nc3ccc(OC(F)(F)F)cc3)CC2)cc1 is 9.30

Per the records, this compound ( CCN(CC)C(=O)c1cc(O[C@H]2CC[C@H](NC(=O)Nc3ccc(Cl)c(C(F)(F)F)c3)CC2)ccn1 ) has pIC50 equal to 9.30
